tested on: MDA-MB-435; experiment: NCI human cancer cell line screen, antiproliferative activity, Breast MDA-MB-435; assay type: cell-based; details: concentration corresponding to 50% growth inhibition, read-out: cytotoxicity GI50, Breast MDA-MB-435
reported_property: GI50

CC1CCCC=CC2CC(O)CC2C(O)[C@H]([S+]([O-])CCO)CC(=O)O1 (some centres unmarked) [Compound 15] | 0.09 µM
CC1CCCC=CC2CC(O)CC2C(O)[C@H]([S+]([O-])CCN)CC(=O)O1 (some centres unmarked) [Compound 18] | 0.055 µM
COC(=O)CS(=O)(=O)[C@@H]1CC(=O)OC(C)CCCC=CC2CC(O)CC2C1O (some centres unmarked) [Compound 27] | 5.5 µM
CC1CCCC=CC2CC(O)CC2C(O)C(SCCN(C)C)CC(=O)O1 (centres unmarked) [Compound 4] | 0.5 µM
CC1CCCC=CC2CC(O)CC2C(O)C(O)C(O)C(=O)O1 (centres unmarked) [Compound 26, 2,3-Dihydro-2,3-dihydroxybrefeldin A] | 3.8 µM
COc1ccc(S[C@@H]2CC(=O)OC(C)CCCC=CC3CC(O)CC3C2O)cc1 (some centres unmarked) [Compound 10] | 19 µM
CC1CCCC=CC2CC(O)CC2C(O)C([S+]([O-])C[C@H](N)C(=O)O)CC(=O)O1 (some centres unmarked) [Compound 21] | 0.05 µM
C[C@H]1CCC/C=C/[C@@H]2C[C@H](O)C[C@H]2[C@H](O)[C@H]([S+]([O-])c2ccc(O)cc2)CC(=O)O1 (some centres unmarked) [Compound 14] | 0.042 µM

====

test system: UACC-62; assay: NCI human cancer cell line screen, antiproliferative activity, Melanoma UACC-62; assay type: cell-based; conditions: concentration corresponding to 50% growth inhibition, read-out: cytotoxicity GI50, Melanoma UACC-62
reported_property: GI50

C[C@H]1CCC/C=C/[C@@H]2C[C@H](O)C[C@H]2[C@H](O)[C@H]([S+]([O-])c2ccc(O)cc2)CC(=O)O1 (some centres unmarked) | 30 nM
CC1CCCC=CC2CC(O)CC2C(O)[C@H]([S+]([O-])CCN)CC(=O)O1 (some centres unmarked) | 21 nM
CC1CCCC=CC2CC(O)CC2C(O)C(O)C(O)C(=O)O1 (centres unmarked) [Compound 26, 2,3-Dihydro-2,3-dihydroxybrefeldin A] | 1600 nM
C[C@H]1CCC/C=C/[C@@H]2C[C@H](O)C[C@H]2[C@@H](O)[C@H]([S+]([O-])CCN(C)C)CC(=O)O1 (some centres unmarked) | 71 nM
C[C@H]1CCC/C=C/[C@@H]2C[C@H](O)C[C@H]2[C@H](O)/C=C/C(=O)O1 | 22 nM
CC1CCCC=CC2CC(O)CC2C(O)C(SCCN(C)C)CC(=O)O1 (centres unmarked) | 430 nM
CC1CCCC=CC2CC(O)CC2C(O)C([S+]([O-])C[C@H](N)C(=O)O)CC(=O)O1 (some centres unmarked) | 38 nM
CC1CCCC=CC2CC(O)CC2C(O)[C@H](SCC(O)CO)CC(=O)O1 (some centres unmarked) | 16000 nM
CC1CCCC=CC2CC(O)CC2C(O)C(SCCO)CC(=O)O1 (centres unmarked) | 40000 nM
CC1CCCC=CC2CC(O)CC2C(O)[C@H](Sc2ccc(O)cc2)CC(=O)O1 (some centres unmarked) | 4800 nM
CC1CCCC=CC2CC(O)CC2C(O)[C@H]([S+]([O-])CCO)CC(=O)O1 (some centres unmarked) | 64 nM
CC1CCCC=CC2CC(O)CC2C(O)C(SCCN)CC(=O)O1 (centres unmarked) | 2700 nM
C[C@H]1CCC/C=C/[C@@H]2C[C@H](OC(=O)CCC(=O)O)C[C@H]2[C@H](OC(=O)CCC(=O)O)/C=C/C(=O)O1 [Compound 24, Brefeldin A Disuccinate] | > 100000 nM
CC1CCCC=CC2CC(OC(=O)CCCC(=O)O)CC2C(OC(=O)CCCC(=O)O)C=CC(=O)O1 (centres unmarked) [Compound 25, Brefeldin A Diglutarate] | > 100000 nM
COc1ccc(S[C@@H]2CC(=O)OC(C)CCCC=CC3CC(O)CC3C2O)cc1 (some centres unmarked) | 29000 nM
COC(=O)CS(=O)(=O)[C@@H]1CC(=O)OC(C)CCCC=CC2CC(O)CC2C1O (some centres unmarked) | 5000 nM
CC1CCCC=CC2CC(O)CC2C(O)[C@H](CC(=O)O)CC(=O)O1 (some centres unmarked) | 33000 nM

From: patent US6362218B1
